- Test system: Serratia marcescens expressing IMP-1 (CL5741)
- ASSAY SUMMARY: Antibiotic potentiation activity: synergistic concentration (MITC95) with imipenem, OD600 growth
- Assay type: cell-based
- TEST CONDITIONS: concentration giving 95% inhibition of bacterial growth
EXPERIMENTAL READOUT: Serratia marcescens expressing IMP-1 (CL5741) MITC95 (µM)
Your answer is read as µM, so omit the unit and give the number.

In the examples that follow, each entry is paired with its recorded Serratia marcescens expressing IMP-1 (CL5741) MITC95.
COMPOUND: NS(=O)(=O)c1nccc(N2CCC(c3ncc[nH]3)CC2)c1-c1nnn[nH]1
READOUT UNITS: µM
ENDPOINT RESULT: 37.5

COMPOUND: Cc1ccc(-c2ccnc(S(N)(=O)=O)c2-c2nnn[nH]2)cc1
READOUT UNITS: µM
ENDPOINT RESULT: 100

COMPOUND: NS(=O)(=O)c1nccc(N2CCC(Oc3ncccn3)CC2)c1-c1nnn[nH]1
READOUT UNITS: µM
ENDPOINT RESULT: 18.75

COMPOUND: NS(=O)(=O)c1cccc(C2CCn3cncc3C2)c1-c1nn[nH]n1 (stereo not drawn)
READOUT UNITS: µM
ENDPOINT RESULT: 12.5

COMPOUND: N#Cc1ccc2[nH]c(-c3cccc(S(N)(=O)=O)c3-c3nn[nH]n3)cc2c1
READOUT UNITS: µM
ENDPOINT RESULT: 28.13

Qu. May I ask what Serratia marcescens expressing IMP-1 (CL5741) MITC95 has been recorded for NS(=O)(=O)c1nccc(-c2ccc(C3CCOCC3)cc2)c1-c1nnn[nH]1 ?
Ans. 25

Qu. Try N#Cc1ccccc1Cc1cccc(S(N)(=O)=O)c1-c1nnn[nH]1 next.
Ans. 3.906

====

- TGT: VIM-1 (Pseudomonas aeruginosa (strain ATCC 15692 / DSM 22644 / CIP 104116 / JCM 14847 / LMG 12228 / 1C / PRS 101 / PAO1))
- ASSAY SUMMARY: Enzyme activity: determination of IC50, fluorescence assay with CCF2-FA substrate (VIM-1)
- Assay type: biochemical
- TEST CONDITIONS: VIM-1 IC50, VIM-1 enzyme, CCF2-FA fluorescence assay
Mark each entry condition met if its IC50 sits below 0.05 µM, and condition not met for all others.

COMPOUND: NS(=O)(=O)c1cccc(-c2ccc(CNCCc3nc[nH]n3)cc2)c1-c1nnn[nH]1 [Example 338]
GROUP LABEL: condition not met

Qu. Lab note: confirm whether the reported IC50 for this compound is below 0.05 µM, equality not counting. compound: CC(NCc1ccc(-c2cccc(S(N)(=O)=O)c2-c2nnn[nH]2)cc1)C(=O)O (stereo not shown) [Example 358]
Ans. condition not met

Qu. What would you report for Nc1ccc(-c2ccc(C(F)(F)F)c(S(N)(=O)=O)c2-c2nn[nH]n2)cn1 [Example 265] ?
Ans. condition met

Qu. Another compound to check: NC(=O)CCc1ccc(-c2ccc(C(F)(F)F)c(S(N)(=O)=O)c2-c2nn[nH]n2)cc1 [Example 449]
Ans. condition met

Qu. // next record C[C@H](O)c1nc(-c2ccc(-c3cccc(S(N)(=O)=O)c3-c3nn[nH]n3)cc2)no1 [Example 251]
Ans. condition not met

Qu. Moving on to the next compound: NS(=O)(=O)c1cccc(-c2ccc(CN3CC[C@H](CO)C3)cc2)c1-c1nnn[nH]1 [Example 392]
Ans. condition not met
